The measured values listed here are drawn from paper PMC5920042.

assay: Single dose pharmacokinetics and bioavailability study
Type: in vivo, male C57BL/6 mice
measurement_context: male, C57BL/6, brain, iv; mouse, KH176 2 mg/kg i.v.; read-out: Brain to Plasma ratio, range (1–8 hours)
outcome_measure: Kp

Exercise: // query Kp value for entry Cc1c(C)c2c(c(C)c1O)CC[C@@](C)(C(=O)N[C@@H]1CCCNC1)O2.Cl
Solution: 1 to 25

----------
assay: Single dose pharmacokinetics and bioavailability study
Type: in vivo, male Sprague Dawley rats
measurement_context: male, Sprague Dawley, iv; rat, KH176 2 mg/kg i.v., plasma
outcome_measure: half-life (h)
Form entry: value (h) — number only.

Exercise: // query half-life value for entry Cc1c(C)c2c(c(C)c1O)CC[C@@](C)(C(=O)N[C@@H]1CCCNC1)O2.Cl [KH176]
Solution: 2.6

----------
assay: 28-day repeat oral dose toxicity study, toxicokinetics
Format: in vivo, Beagle dogs
measurement_context: female, Beagle, dog, plasma, po, 10 mg/kg, KH176 10 mg/kg/dose BID oral, F, Day 28, plasma, read-out: Cmax
outcome_measure: Cmax (ng/mL)
Form entry: value (ng/mL) — number only.

Exercise: // query Cmax value for entry Cc1c(C)c2c(c(C)c1O)CC[C@@](C)(C(=O)N[C@@H]1CCCNC1)O2.Cl
Solution: 1540

----------
assay: 28-day repeat oral dose toxicity study, toxicokinetics
Format: in vivo, Beagle dogs
measurement_context: female, Beagle, dog, plasma, po, 62.5 mg/kg, KH176 62.5 mg/kg/dose BID oral, F, Day 28, plasma, read-out: AUC0–24 h
outcome_measure: AUC(0-t) (ng·h/mL)
Form entry: value (ng·h/mL) — number only.

Exercise: // query AUC(0-t) value for entry Cc1c(C)c2c(c(C)c1O)CC[C@@](C)(C(=O)N[C@@H]1CCCNC1)O2.Cl [KH176]
Solution: 85500

----------
assay: 28-day repeat oral dose toxicity study, toxicokinetics
Assay type: in vivo, Beagle dogs
measurement_context: male, Beagle, dog, plasma, po, 62.5 mg/kg, KH176 62.5 mg/kg/dose BID oral, M, Day 28, plasma
outcome_measure: half-life (h)
Form entry: value (h) — number only.

Exercise: // query half-life value for entry Cc1c(C)c2c(c(C)c1O)CC[C@@](C)(C(=O)N[C@@H]1CCCNC1)O2.Cl
Solution: 2.4

----------
assay: 28-day repeat oral dose toxicity study, toxicokinetics
Format: in vivo, Beagle dogs
measurement_context: female, Beagle, dog, plasma, po, 25 mg/kg, KH176 25 mg/kg/dose BID oral, F, Day 1, plasma, read-out: AUC0–24 h
outcome_measure: AUC(0-t)

Exercise: // query AUC(0-t) value for entry Cc1c(C)c2c(c(C)c1O)CC[C@@](C)(C(=O)N[C@@H]1CCCNC1)O2.Cl [KH176]
Solution: 41900 ng·h/mL

----------
assay: Single dose pharmacokinetics and bioavailability study
Assay type: in vivo, male C57BL/6 mice
measurement_context: male, C57BL/6, po; mouse, KH176 10 mg/kg p.o., plasma
outcome_measure: AUC(0-t) (ng·h/mL)
Form entry: value (ng·h/mL) — number only.

Exercise: // query AUC(0-t) value for entry Cc1c(C)c2c(c(C)c1O)CC[C@@](C)(C(=O)N[C@@H]1CCCNC1)O2.Cl [KH176]
Solution: 618

----------
assay: Single dose pharmacokinetics and bioavailability study
Type: in vivo, male C57BL/6 mice
measurement_context: male, C57BL/6, po; mouse, KH176 10 mg/kg p.o., plasma
outcome_measure: Cmax
Give the value; after it, write the unit.

Exercise: // query Cmax value for entry Cc1c(C)c2c(c(C)c1O)CC[C@@](C)(C(=O)N[C@@H]1CCCNC1)O2.Cl [KH176]
Solution: 414 ng/mL
